Hi! I'm sharing some IC50 results obtained with Pim-2 (Homo sapiens (Human)).

[ask] Value lookup for IC50; key = C[C@@H]1C[C@H](N)CN(c2ccncc2NC(=O)c2c(N)oc3cc(-c4c(F)cccc4F)cnc23)C1
[reply] 10 to 100 nM

[ask] Can you look up the measured IC50 of C[C@@H]1C[C@H](N)CN(c2ccncc2NC(=O)c2c(N)sc3cccnc23)C1 for me?
[reply] 100 to 1000 nM

[ask] Fill in: IC50 of Nc1oc2cc(F)cnc2c1C(=O)Nc1cnccc1N1CCC[C@H](N)C1 is ___
[reply] 100 to 1000 nM

[ask] Look up IC50 for this compound: C[C@H]1CN(c2ccncc2NC(=O)c2c(N)oc3cc(C4CCC4)cnc23)C[C@@H](N)[C@@H]1O
[reply] ≤ 10 nM

---

- EXPERIMENTAL TARGET: Pim-2 (Homo sapiens (Human), UniProt Q9P1W9)
- Sequence (Q9P1W9 whole entry): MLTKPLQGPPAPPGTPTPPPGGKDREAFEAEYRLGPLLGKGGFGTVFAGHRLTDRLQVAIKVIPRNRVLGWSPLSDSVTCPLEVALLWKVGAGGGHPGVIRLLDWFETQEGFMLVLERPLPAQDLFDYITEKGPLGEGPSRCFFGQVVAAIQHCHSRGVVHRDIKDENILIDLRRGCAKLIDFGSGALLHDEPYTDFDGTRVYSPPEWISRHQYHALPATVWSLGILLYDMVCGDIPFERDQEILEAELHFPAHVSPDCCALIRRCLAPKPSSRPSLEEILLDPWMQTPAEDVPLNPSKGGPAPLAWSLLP
- MEASUREMENT NOTES: Pim-2 kinase assay
- Type: biochemical
- SETTINGS: 1 mM ATP, fluorescein-labeled CREBtide peptide substrate; read-out: Pim2 IC50
TEST READOUT: IC50

[ask] Item Cc1ccc2sc(N)c(C(=O)Nc3cnccc3N3CCC[C@H](N)C3)c2n1 (stereo in doubt) has what recorded IC50?
[reply] > 2000 nM

[ask] Data request, read-out IC50, for CCCc1cnc2c(C(=O)Nc3cnccc3[C@H]3C[C@@H](N)[C@](C)(O)[C@@H](C)C3)c(N)oc2c1
[reply] 10 to 100 nM

[ask] Quick one: IC50 of Cn1ncc(NC(=O)c2c(N)sc3cc(-c4nccs4)cnc23)c1N1CCCC(N)CC1 (stereo not shown) ?
[reply] 10 to 100 nM

[ask] What IC50 value was documented for this compound, CCCc1cnc2c(C(=O)Nc3cnccc3N3CC[C@@H](F)[C@H](N)C3)c(N)oc2c1 ?
[reply] 100 to 1000 nM

[ask] Request the reported IC50 associated with CCCc1cnc2c(C(=O)Nc3cnccc3N3C[C@@H](N)[C@@](C)(O)[C@@H](C)C3)c(N)oc2c1
[reply] ≤ 10 nM

[ask] Would you mind telling me what IC50 value was observed for C[C@@H]1C[C@H](N)CN(c2ccncc2NC(=O)c2c(N)oc3cc(-c4cnn(C)c4)cnc23)C1 ?
[reply] 10 to 100 nM

[ask] # get_value(readout='IC50', item= CCCc1cnc2c(C(=O)Nc3cncc(C)c3N3C[C@@H](N)[C@H](O)[C@@H](C)C3)c(N)oc2c1 )
[reply] ≤ 10 nM

[ask] Give its IC50 value. Item: C[C@H]1CN(c2ccncc2NC(=O)c2c(N)oc3cccnc23)C[C@@H](N)[C@@H]1O
[reply] 10 to 100 nM

[ask] Please give the measured IC50 for this compound: CN1CCN(Cc2cnc3c(C(=O)Nc4cnccc4N4C[C@@H](N)C[C@@H](C(F)(F)F)C4)c(N)oc3c2)CC1
[reply] 10 to 100 nM

[ask] For CC(C)c1cnc2c(C(=O)Nc3cnccc3[C@@H]3C[C@H](C)C[C@H](N)C3)c(N)oc2c1 , what is its reported IC50?
[reply] ≤ 10 nM

[ask] # lookup: IC50 of C[C@@H]1C[C@H](N)CN(c2ccncc2NC(=O)c2c(N)oc3cc(C4CCC4)cnc23)C1
[reply] ≤ 10 nM

[ask] Fill in: IC50 of Cn1ncc(NC(=O)c2c(N)oc3cc(C(F)(F)F)cnc23)c1N1CCCC(N)CC1 (stereo not shown) is ___
[reply] 10 to 100 nM

[ask] Entry CCCc1cnc2c(C(=O)Nc3cnn(C)c3N3CCCC(N)CC3)c(N)oc2c1 (stereo not shown) : reported IC50 = ?
[reply] 10 to 100 nM

[ask] Please report the recorded IC50 for Cc1cnc2c(C(=O)Nc3cnccc3N3CCC[C@H](N)C3)c(N)oc2c1 .
[reply] 10 to 100 nM

[ask] What value of measured IC50 is listed for CCCc1cnc2c(C(=O)Nc3cnccc3N3C[C@@H](N)[C@](C)(O)[C@@H](C)C3)c(N)oc2c1 ?
[reply] ≤ 10 nM

[ask] // query IC50 value for entry Cn1ncc(NC(=O)c2c(N)sc3cc(F)cnc23)c1N1CCCC(N)CC1 (stereo not shown)
[reply] 100 to 1000 nM

[ask] Entry Nc1oc2cccnc2c1C(=O)Nc1cnccc1[C@H]1C[C@@H](N)C[C@@H](C(F)(F)F)C1 : reported IC50 = ?
[reply] 10 to 100 nM

[ask] Request the reported IC50 associated with Cc1noc(C)c1-c1cnc2c(C(=O)Nc3cnn(C)c3N3CCCC(N)CC3)c(N)sc2c1 (stereo not shown)
[reply] 100 to 1000 nM

[ask] # get_value(readout='IC50', item= CC(C)c1cnc2c(C(=O)Nc3cnccc3N3CCC[C@H](N)C3)c(N)oc2c1 )
[reply] 10 to 100 nM

[ask] Data request, read-out IC50, for Nc1oc2cc(C(F)(F)F)cnc2c1C(=O)Nc1cnccc1N1CCC[C@H](N)C1
[reply] 10 to 100 nM

[ask] Tell me the measured IC50 of Cn1ncc(NC(=O)c2c(N)sc3cccnc23)c1-c1ccc2c(c1)C(N)CC2 (stereo not shown) , please.
[reply] 100 to 1000 nM

[ask] // lookup IC50 for Nc1sc2cc(C3CCOCC3)cnc2c1C(=O)Nc1cnccc1N1CCC[C@H](N)C1
[reply] 10 to 100 nM

[ask] I'd like to know its IC50. The compound in question is Nc1oc2cc(C3CCC3)cnc2c1C(=O)Nc1cnccc1N1C[C@@H](N)C[C@@H](C(F)(F)F)C1
[reply] ≤ 10 nM

[ask] Requested read-out: IC50. Entry: CCCc1cnc2c(C(=O)Nc3cnccc3N3CCC[C@H](N)C3)c(N)oc2c1
[reply] 10 to 100 nM

[ask] Which IC50 reading was recorded for the compound CCOC1CCN(Cc2cnc3c(C(=O)Nc4cnccc4N4C[C@@H](N)C[C@@H](C(F)(F)F)C4)c(N)oc3c2)C1 (stereo partly shown) ?
[reply] 10 to 100 nM

[ask] Query: IC50; subject: COC1CCN(Cc2cnc3c(C(=O)Nc4cnccc4N4C[C@@H](N)C[C@@H](C(F)(F)F)C4)c(N)oc3c2)C1 (stereo partly shown)
[reply] 10 to 100 nM

[ask] IC50 for Cn1ncc(NC(=O)c2c(N)sc3cccnc23)c1N1CCCC(N)CC1 (stereo not shown) ?
[reply] 100 to 1000 nM

[ask] Quick one: IC50 for CCc1cnc2c(C(=O)Nc3cnn(C)c3N3CCCC(N)CC3)c(N)sc2c1 (stereo not shown) ?
[reply] 10 to 100 nM

[ask] Fill in the blank: the reported IC50 of Nc1oc2cc(C3CCOCC3)cnc2c1C(=O)Nc1cnccc1N1C[C@@H](N)C[C@@H](C(F)(F)F)C1 is ____.
[reply] ≤ 10 nM

[ask] Which value of IC50 has been reported for C[C@@H]1C[C@H](N)CN(c2ccncc2NC(=O)c2c(N)oc3cc(C(F)(F)F)cnc23)C1 in the records?
[reply] 10 to 100 nM

[ask] Give the measured IC50 of CN1CCC(c2cnc3c(C(=O)Nc4cnn(C)c4N4C[C@@H](N)C[C@@H](C(F)(F)F)C4)c(N)oc3c2)CC1 .
[reply] 10 to 100 nM

---

Dear all, this message contains IC50 results, target or system Pim-2 (Homo sapiens (Human)).

[ask] Using the record for Nc1oc2cccnc2c1C(=O)Nc1cnccc1N1C[C@@H](N)C[C@@H](C(F)(F)F)C1 [Example 60] , report its IC50.
[reply] 10 to 100 nM

[ask] Any idea what IC50 was measured for CCc1cnc2c(C(=O)Nc3cnccc3N3CCC[C@H](N)C3)c(N)sc2c1 [Example 22] ?
[reply] 10 to 100 nM

[ask] Requested read-out: IC50. Entry: CC(C)c1cnc2c(C(=O)Nc3cnccc3N3C[C@@H](N)[C@@H](n4ccnn4)[C@@H](C)C3)c(N)oc2c1 [Example 102]
[reply] 10 to 100 nM

[ask] IC50 for Cn1ncc(NC(=O)c2c(N)sc3ccc(-c4ccccc4)nc23)c1N1CCCC(N)CC1 (stereo not shown) [Example 44] ?
[reply] > 2000 nM

[ask] So what's the measured IC50 for this one? CN1CCC(c2cnc3c(C(=O)Nc4cnccc4N4C[C@@H](N)C[C@@H](C(F)(F)F)C4)c(N)oc3c2)CC1 [Example 93]
[reply] 10 to 100 nM

[ask] Need IC50 of CC(C)c1cnc2c(C(=O)Nc3cnccc3N3C[C@@H](N)[C@H](O)[C@@H](C)C3)c(N)oc2c1 [Example 75] , thanks.
[reply] 10 to 100 nM

[ask] Would you kindly share the measured IC50 for Nc1oc2cc(CCCN3CCOCC3)cnc2c1C(=O)Nc1cnccc1N1C[C@@H](N)C[C@@H](C(F)(F)F)C1 [Example 132] ?
[reply] ≤ 10 nM

Reference for the values: patent US10000507B2
